Assign inhibition in vivo at 1 % to each entry below.
Tested on: intraocular pressure in rabbits
Test: Intraocular pressure measurement after instillation of eye drops in rabbits
Type: in vivo, rabbit (NZW, male)
Condition notes: Oryctolagus cuniculus, topical, 2 h; 120 minutes after instillation, 1% eye drops, rabbit; read-out: maximum intraocular-pressure-reducing effect, intraocular pressure lower than that of the control eye
Structures can show the parent of a compound that is named as a salt.
Please report the result as a number followed by the unit.

// lookup inhibition in vivo at 1 % for C[C@H]1CNCCCCN1S(=O)(=O)c1cccc2cncc(Cl)c12 [Compound C8, dihydrochloride] 35%

// lookup inhibition in vivo at 1 % for C[C@H]1CNCCCN1S(=O)(=O)c1cccc2cncc(Br)c12 [Compound B7, dihydrochloride] 56%

// lookup inhibition in vivo at 1 % for C[C@H]1CNCCCN1S(=O)(=O)c1cccc2cncc(F)c12 [Compound F7, dihydrochloride] 45%

// lookup inhibition in vivo at 1 % for C[C@H]1CNCCCCN1S(=O)(=O)c1cccc2cncc(F)c12 [Compound F8, dihydrochloride] 45%

// lookup inhibition in vivo at 1 % for C#Cc1cncc2cccc(S(=O)(=O)N3CCCNC[C@@H]3C)c12.Cl.Cl [M, dihydrochloride, reference compound] 28%

// lookup inhibition in vivo at 1 % for C[C@H]1CNCCN1S(=O)(=O)c1cccc2cncc(Br)c12 [Compound B6, dihydrochloride] 26%

// lookup inhibition in vivo at 1 % for C[C@H]1CNCCCCN1S(=O)(=O)c1cccc2cncc(Br)c12 [Compound B8, dihydrochloride] 47%

// lookup inhibition in vivo at 1 % for C[C@H]1CNCCCN1S(=O)(=O)c1cccc2cncc(Cl)c12 [Compound C7, dihydrochloride] 54%
